Origin of measurements: patent US10184116B2

ASSAY_NAME: Luminescence activity of ZZ-fused WNanoKAZ mutants in crude enzyme solution (Example 10)
Type: biochemical
DETAILS: ZZ-fused, pCold-ZZ-P- vector in E. coli, coelenterazine substrate, KAZ = 1.0
Would you kindly list Relative luminescence activity (Imax) for each of these molecules?
The answer should be written as a number, with no unit following it.

Note to self: Relative luminescence activity (Imax) recorded for WNanoKAZ-I138Y: single amino acid-substituted WNanoKAZ mutant I138Y; SEQ ID NO: 14 (protein) FTLADFVGDWQQTAGYNQDQVLEQGGLSSLFQALGVSVTPIQKVVLSGENGLKADIHVIIPYEGLSGFQMGLIEMIFKVVYPVDDHHFKVILHYGTLVIDGVTPNMIDYFGRPYEGIAVFDGKKITVTGTLWNGNKIYDERLINPDGSLLFRVTINGVTGWRLCERILA was 8.5

Note to self: Relative luminescence activity (Imax) recorded for WNanoKAZ-K124Q: single amino acid-substituted WNanoKAZ mutant K124Q; SEQ ID NO: 12 (protein) FTLADFVGDWQQTAGYNQDQVLEQGGLSSLFQALGVSVTPIQKVVLSGENGLKADIHVIIPYEGLSGFQMGLIEMIFKVVYPVDDHHFKVILHYGTLVIDGVTPNMIDYFGRPYEGIAVFDGKQITVTGTLWNGNKIIDERLINPDGSLLFRVTINGVTGWRLCERILA was 34

Note to self: Relative luminescence activity (Imax) recorded for KAZ: 19 kDa protein of native Oplophorus luciferase having luminescence activity; SEQ ID NO: 2 (protein, listed as Oplophorus gracilirostris) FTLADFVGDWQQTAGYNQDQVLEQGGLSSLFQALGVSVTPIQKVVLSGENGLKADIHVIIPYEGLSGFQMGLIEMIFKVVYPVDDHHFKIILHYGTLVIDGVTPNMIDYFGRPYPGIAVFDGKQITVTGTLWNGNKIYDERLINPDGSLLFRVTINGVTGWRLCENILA was 1.0

Note to self: Relative luminescence activity (Imax) recorded for WNanoKAZ-V90I: single amino acid-substituted WNanoKAZ mutant, valine 90 back to isoleucine; SEQ ID NO: 8 (protein) FTLADFVGDWQQTAGYNQDQVLEQGGLSSLFQALGVSVTPIQKVVLSGENGLKADIHVIIPYEGLSGFQMGLIEMIFKVVYPVDDHHFKIILHYGTLVIDGVTPNMIDYFGRPYEGIAVFDGKKITVTGTLWNGNKIIDERLINPDGSLLFRVTINGVTGWRLCERILA was 34
